Each recorded value in this set is attributed to patent US9573966B2.

test system: HL-60 cells; test: Inhibition of HL-60 leukemic cell line proliferation (WST-1); format: cell-based, human; details: Homo sapiens, 48 h; cytotoxicity on HL-60 cells, two days incubation, WST-1 read-out
Reported values of IC50 for individual entries
measured-endpoint: IC50

* Cc1cccc(NC(=O)N2CCN(c3nc(N)nc4sc(-c5ccccc5)cc34)CC2)c1 [Example 330] | > 10 µM
* Nc1nc(N2CCN(C(=O)CCc3ccccc3)CC2)c2cc(-c3ccc(F)cc3)sc2n1 [Example 343] | > 10 µM
* Nc1nc(N2CCN(C(=O)COc3ccc(Cl)cc3)CC2)c2nc(-c3ccc(Cl)cc3)[nH]c2n1 [Example 392] | 3.14 µM
* CCCSc1nc2c(N3CCN(C(=O)COc4ccc(Cl)cc4)CC3)nc(N)nc2[nH]1 [Example 425] | 8.83 µM
* Nc1nc(N2CCN(C(=O)COc3ccc(F)cc3)CC2)c2nc(-c3ccco3)sc2n1 [Example 209] | 0.57 µM
* CN(C(=O)CN1CCN(c2nc(N)nc3oc(CCc4ccc(F)cc4)nc23)CC1)c1ccccc1 [Example 198] | > 10 µM
* CCCCCc1nc2c(N3CCN(C(=O)COc4ccc(Cl)cc4)CC3)nc(N)nc2o1 [Example 188] | > 10 µM
* Cc1cccc(NC(=O)N2CCN(c3nc(N)nc4oc(CCc5ccc(F)cc5)nc34)CC2)c1 [Example 196] | > 10 µM
* Cc1cccc(NC(=O)N2CCCN(c3nc(N)nc4[nH]c(-c5ccc(F)cc5)nc34)CC2)c1 [Example 422] | > 10 µM
* N#Cc1ccc(NC(=O)N2CCN(c3nc(N)nc4sc(-c5cccnc5)nc34)CC2)cc1 [Example 279] | 0.88 µM
* Nc1nc(N2CCN(C(=O)Nc3ccc(Cl)cc3)CC2)c2cc(-c3ccccc3)sc2n1 [Example 331] | > 10 µM
* Nc1nc(N2CCCN(C(=O)COc3ccc(Cl)cc3)CC2)c2nc(-c3ccc(F)cc3)[nH]c2n1 [Example 421] | > 10 µM
* Nc1nc(N2CCN(C(=O)COc3ccc(Cl)cc3)CC2)c2cc(-c3ccc(F)cc3)sc2n1 [Example 326] | > 10 µM
* COc1ccc(OCC(=O)N2CCN(c3nc(N)nc4sc(-c5ccccc5)nc34)CC2)cc1 [Example 208] | 0.07 µM

---

system: HSB-2 cells; assay: Inhibition of HSB-2 leukemic cell line proliferation (WST-1); format: cell-based, human; settings: Homo sapiens, HSB2, 48 h, cytotoxicity on HSB-2 cells, two days incubation, WST-1 read-out
pIC50: −log10 of the molar value.
Reported values of pIC50 for individual entries
measured-endpoint: pIC50

• COc1cccc(CCc2nc3c(N4CCN(C(=O)COc5ccc(Cl)cc5)CC4)nc(N)nc3s2)c1 = 5.68
• Cc1ccc(-c2nc3c(N4CCN(C(=O)COc5ccc(Cl)cc5)CC4)nc(N)nc3[nH]2)cc1 = 6.31
• Nc1nc(N2CCN(C(=O)COc3ccc(Cl)cc3)CC2)c2cc(-c3ccc(F)cc3)sc2n1 = 5.05
• COc1ccc(OCC(=O)N2CCN(c3nc(N)nc4sc(-c5ccc(C)cc5)nc34)CC2)cc1 = 5.38
• Cc1cccc(OCC(=O)N2CCN(c3nc(N)nc4sc(-c5cccnc5)nc34)CC2)c1 = 7.15
• Nc1nc(N2CCN(C(=O)COc3ccc(Br)cc3)CC2)c2nc(Cc3ccc(F)cc3)sc2n1 = 5.58
• Nc1nc(N2CCN(C(=O)Nc3ccc(Br)cc3)CC2)c2nc(-c3ccc(F)cc3)sc2n1 = 5.15
• Cc1cccc(OCC(=O)N2CCN(c3nc(N)nc4sc(-c5ccc(F)cc5)nc34)CC2)c1 = 6.33
• CCCSc1nc2c(N3CCN(C(=O)COc4ccc(Cl)cc4)CC3)nc(N)nc2[nH]1 = 5.34
• COc1ccc(-c2nc3c(N4CCN(C(=O)COc5ccc(Cl)cc5)CC4)nc(N)nc3[nH]2)cc1OC = 6.35

---

Reported values of pIC50 for individual entries
tested on: HSB-2 cells; experiment: Inhibition of HSB-2 leukemic cell line proliferation (WST-1); format: cell-based, human; conditions: Homo sapiens, HSB2, 48 h, cytotoxicity on HSB-2 cells, two days incubation, WST-1 read-out
pIC50: −log10 of the molar value.
measured-endpoint: pIC50

- Nc1nc(N2CCN(C(=O)COc3ccc(Cl)cc3)CC2)c2nc(SCc3ccccc3)[nH]c2n1 [Example 426]: < 5.00
- CCCCCc1nc2c(N3CCN(C(=O)COc4ccc(Cl)cc4)CC3)nc(N)nc2o1 [Example 188]: < 5.00
- COc1ccc(OCC(=O)N2CCN(c3nc(N)nc4sc(CCCc5ccc(F)cc5)nc34)CC2)cc1 [Example 291]: < 5.00
- COc1ccc(CCc2nc3c(N4CCN(C(=O)COc5ccc(Br)cc5)CC4)nc(N)nc3s2)cc1OC [Example 256]: < 5.00

---

test system: HL-60 cells; assay: Inhibition of HL-60 leukemic cell line proliferation (WST-1); format: cell-based, human; settings: Homo sapiens, 48 h; cytotoxicity on HL-60 cells, two days incubation, WST-1 read-out
Reported values of IC50 for individual entries
measured-endpoint: IC50

* Nc1nc(N2CCN(C(=O)COc3ccc(Cl)cc3)CC2)c2nc(CCc3ccccc3)oc2n1 | > 10 µM
* Nc1nc(N2CC[C@@H](NC(=O)c3ccc(Cl)cc3)C2)c2cc(-c3ccc(F)cc3)sc2n1 | > 10 µM
* COc1ccc(-c2nc3c(N4CCN(C(=O)COc5ccc(Cl)cc5)CC4)nc(N)nc3[nH]2)cc1OC | > 10 µM
* Nc1nc(N2CCN(C(=O)COc3cccc([N+](=O)[O-])c3)CC2)c2nc(-c3ccc(F)cc3)sc2n1 | 9.74 µM
* Nc1nc(N2CCN(C(=O)COc3ccc(Cl)cc3)CC2)c2nc(SCc3ccccc3)[nH]c2n1 | > 10 µM
* CCC(c1ccc(F)cc1)c1nc2c(N3CCN(C(=O)COc4ccc(Cl)cc4)CC3)nc(N)nc2s1 (stereo not shown) | > 10 µM
* Nc1nc(N2CCN(C(=O)COc3ccc(Cl)cc3)CC2)c2nc(-c3ccc(F)cc3)[nH]c2n1 | > 10 µM
* CCCc1nc2c(N3CCN(C(=O)COc4ccc(Cl)cc4)CC3)nc(N)nc2[nH]1 | 1.26 µM
* Nc1nc(N2CCN(C(=O)COc3ccc(Cl)cc3)CC2)c2nc(SC3CCCC3)[nH]c2n1 | > 10 µM
* Cc1cccc(NC(=O)N2CCN(c3nc(N)nc4sc(-c5cccnc5)nc34)CC2)c1 | 0.06 µM

---

system: HL-60 cells; assay: Inhibition of HL-60 leukemic cell line proliferation (WST-1); assay type: cell-based, human; settings: Homo sapiens, 48 h; cytotoxicity on HL-60 cells, two days incubation, WST-1 read-out
measured-endpoint: log10(IC50) (log10 of the value in µM)

- Nc1nc(N2CCN(C(=O)COc3ccccc3)CC2)c2nc(-c3ccc(F)cc3)sc2n1 [Example 130]: -0.09
- Nc1nc(N2CCN(C(=O)COc3ccc(Cl)cc3)CC2)c2nc(-c3ccccn3)sc2n1 [Example 282]: -0.04
- Cc1cccc(OCC(=O)N2CCN(c3nc(N)nc4sc(-c5ccc(F)cc5)nc34)CC2)c1 [Example 211]: -0.16
- Nc1nc(N2CCN(C(=O)COc3ccc(Cl)cc3)CC2)c2nc(C3CC3)sc2n1 [Example 119]: 0.58
- Nc1nc(N2CCN(C(=O)Nc3ccc(Cl)cc3)CC2)c2nc(-c3cccnc3)sc2n1 [Example 277]: -0.08
- Nc1nc(N2CCN(C(=O)COc3ccc(Cl)cc3)CC2)c2ccsc2n1 [Example 351]: 0.71
- Cc1cccc(OCC(=O)N2CCN(c3nc(N)nc4sc(-c5ccco5)nc34)CC2)c1 [Example 210]: -0.41
- Cc1cccc(NC(=O)N2CCN(c3nc(N)nc4sc(-c5ccccc5)nc34)CC2)c1 [Example 220]: -0.04
- COc1ccc(OCC(=O)N2CCN(c3nc(N)nc4sc(-c5cccnc5)nc34)CC2)cc1 [Example 271]: -1.00
- Nc1nc(N2CCN(C(=O)COc3ccc(Cl)cc3)CC2)c2nc(-c3ccc(Cl)c(Cl)c3)sc2n1 [Example 116]: 0.93
- Cc1cccc(OCC(=O)N2CCN(c3nc(N)nc4sc(-c5cccnc5)nc34)CC2)c1 [Example 275]: -1.30
- Nc1nc(N2CCN(C(=O)COc3ccc(Cl)cc3)CC2)c2nc(CCc3ccccc3)sc2n1 [Example 118]: 1.00
- COc1ccc(OCC(=O)N2CCN(c3nc(N)nc4sc(-c5ccc(Cl)cc5)nc34)CC2)cc1 [Example 270]: -0.35
- Nc1nc(N2CCN(C(=O)CCc3ccc(F)cc3)CC2)c2nc(-c3ccc(F)cc3)sc2n1 [Example 236]: 0.91
- COc1ccc(CNC(=O)N2CCN(c3nc(N)nc4sc(-c5cccnc5)nc34)CC2)cc1 [Example 278]: -0.17
- Nc1nc(N2CCN(C(=O)COc3ccc(Cl)cc3)CC2)c2nc(CCc3cccs3)sc2n1 [Example 154]: 0.81
- COc1ccc(OCC(=O)N2CCN(c3nc(N)nc4sc(-c5ccccc5)cc34)CC2)cc1 [Example 369]: 0.78
- CSc1nc2c(N3CCN(C(=O)COc4ccc(Cl)cc4)CC3)nc(N)nc2n1C [Example 428]: 0.20
- Cc1cc(Cl)ccc1OCC(=O)N1CCN(c2nc(N)nc3sc(-c4ccc(F)cc4)nc23)CC1 [Example 213]: 0.83
- Cc1nc2c(N3CCN(C(=O)COc4ccc(Cl)cc4)CC3)nc(N)nc2[nH]1 [Example 400]: 0.47
- Nc1nc(N2CCN(C(=O)Nc3ccc(Br)cc3)CC2)c2nc(-c3ccc(F)cc3)sc2n1 [Example 218]: 0.87
